Tested on: KS
measurement_notes: Cytotoxicity against human KS cells after 24 hrs by coulter counter
Assay type: functional, cell-based

# smiles_repr, study_system, Activity
data = [
    ("C[C@]12CC[C@H]3[C@@H](CC[C@H]4C[C@H]5O[C@@H]6O[C@H](CO)C[C@@H](O)[C@]6(O)O[C@@H]5C[C@@]43CO)[C@@]1(O)CC[C@@H]2C1=CC(=O)OC1", "KS", "Dose-dependent effect"),
    ("C[C@@H]1C[C@@H](O)[C@]2(O)O[C@@H]3C[C@@]4(C=O)[C@@H](CC[C@@H]5[C@@H]4CC[C@]4(C)[C@@H](C6=CC(=O)OC6)CC[C@]54O)C[C@H]3O[C@@H]2O1", "KS", "Dose-dependent effect"),
]

###

Tested on: KS
measurement_notes: Cytotoxicity against human KS cells after 24 hrs by coulter counter
Type: functional, cell-based

# compound, study_system, Activity
rows = [
    ("C[C@]12[C@H](O)C[C@H]3[C@@H](CC[C@H]4C[C@H]5O[C@@H]6O[C@H](CO)C[C@@H](O)[C@]6(O)O[C@@H]5C[C@@]43CO)[C@@]1(O)CC[C@@H]2C1=CC(=O)OC1 [GHALAKINOSIDE]", "KS", "Dose-dependent effect"),
    ("C[C@@H]1C[C@@H](O)[C@]2(O)O[C@@H]3C[C@@]4(CO)[C@@H](CC[C@@H]5[C@@H]4C[C@@H](O)[C@]4(C)[C@@H](C6=CC(=O)OC6)CC[C@]54O)C[C@H]3O[C@@H]2O1", "KS", "Dose-dependent effect"),
    ("C[C@@H]1C[C@@H](O[C@@H]2O[C@H](CO)[C@@H](O)[C@H](O)[C@H]2O)[C@]2(O)O[C@@H]3C[C@@]4(C=O)[C@@H](CC[C@@H]5[C@@H]4CC[C@]4(C)[C@@H](C6=CC(=O)OC6)CC[C@]54O)C[C@H]3O[C@@H]2O1", "KS", "Dose-dependent effect"),
]
